testedOn: PI3Kdelta (Homo sapiens (Human), UniProt O00329)
Sequence (O00329 whole entry, canonical isoform): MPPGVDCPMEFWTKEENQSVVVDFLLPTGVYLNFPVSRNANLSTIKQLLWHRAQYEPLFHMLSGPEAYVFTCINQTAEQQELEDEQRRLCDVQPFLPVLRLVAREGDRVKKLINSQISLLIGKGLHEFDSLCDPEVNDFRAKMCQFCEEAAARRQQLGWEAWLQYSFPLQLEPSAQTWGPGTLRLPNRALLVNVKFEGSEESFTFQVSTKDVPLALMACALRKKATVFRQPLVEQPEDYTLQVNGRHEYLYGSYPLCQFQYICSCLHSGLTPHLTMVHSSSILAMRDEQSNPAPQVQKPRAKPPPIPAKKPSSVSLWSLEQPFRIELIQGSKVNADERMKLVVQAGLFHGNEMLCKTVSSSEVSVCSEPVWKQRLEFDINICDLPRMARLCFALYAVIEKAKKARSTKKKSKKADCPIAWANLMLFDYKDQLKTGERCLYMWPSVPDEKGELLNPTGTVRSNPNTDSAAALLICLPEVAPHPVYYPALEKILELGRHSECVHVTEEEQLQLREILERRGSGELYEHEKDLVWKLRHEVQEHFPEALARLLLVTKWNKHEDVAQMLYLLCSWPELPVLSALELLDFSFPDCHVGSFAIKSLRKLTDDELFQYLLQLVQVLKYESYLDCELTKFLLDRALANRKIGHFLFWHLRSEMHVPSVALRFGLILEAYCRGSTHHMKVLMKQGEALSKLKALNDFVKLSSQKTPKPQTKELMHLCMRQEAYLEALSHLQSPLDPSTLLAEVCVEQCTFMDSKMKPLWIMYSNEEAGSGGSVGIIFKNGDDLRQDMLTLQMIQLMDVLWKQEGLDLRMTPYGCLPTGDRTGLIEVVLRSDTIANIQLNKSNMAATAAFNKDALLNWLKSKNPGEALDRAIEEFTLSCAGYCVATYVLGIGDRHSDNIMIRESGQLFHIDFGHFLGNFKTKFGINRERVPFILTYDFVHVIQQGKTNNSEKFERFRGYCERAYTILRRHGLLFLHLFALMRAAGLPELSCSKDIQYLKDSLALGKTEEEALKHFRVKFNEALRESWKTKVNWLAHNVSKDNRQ
Sequence (P27986 whole entry partner, canonical isoform): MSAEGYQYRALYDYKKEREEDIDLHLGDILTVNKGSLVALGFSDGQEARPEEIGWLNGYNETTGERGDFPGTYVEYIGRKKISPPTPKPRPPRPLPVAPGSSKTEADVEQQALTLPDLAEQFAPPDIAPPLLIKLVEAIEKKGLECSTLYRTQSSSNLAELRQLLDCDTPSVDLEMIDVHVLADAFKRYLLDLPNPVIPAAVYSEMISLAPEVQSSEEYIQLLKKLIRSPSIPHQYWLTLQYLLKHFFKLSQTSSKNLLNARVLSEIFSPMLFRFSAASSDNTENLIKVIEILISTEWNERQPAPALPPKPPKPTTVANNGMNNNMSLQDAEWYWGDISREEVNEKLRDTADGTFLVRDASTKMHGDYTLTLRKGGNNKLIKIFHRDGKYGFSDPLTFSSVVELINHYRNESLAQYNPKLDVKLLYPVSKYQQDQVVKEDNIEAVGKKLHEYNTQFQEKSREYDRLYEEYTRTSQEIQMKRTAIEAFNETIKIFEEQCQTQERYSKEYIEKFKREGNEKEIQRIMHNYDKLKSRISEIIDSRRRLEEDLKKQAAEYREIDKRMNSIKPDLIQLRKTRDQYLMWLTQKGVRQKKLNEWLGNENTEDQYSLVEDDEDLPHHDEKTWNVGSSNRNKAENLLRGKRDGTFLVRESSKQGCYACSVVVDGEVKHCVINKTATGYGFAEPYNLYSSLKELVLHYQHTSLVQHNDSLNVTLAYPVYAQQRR
assayExplanation: HTRF PI3K biochemical assay, delta isoform
studyConditions: 0.3 nM enzyme, 100 uM ATP, 50 uM PIP2; form screened (neutral or TFA salt)
valueType: IC50 (µM)

compound	measured
CCn1c(-c2cnc(C)nc2)nc2c(-c3ccc4c(c3)C(C)(N3CC(C)(F)C3)C(=O)N4)ncnc21 (single isomer, unassigned) [Compound 2-63]	0.087

(P) CCn1c(-c2cnc(C)nc2)nc2c(-c3ccc4c(c3)C(C)(CC)C(=O)N4)ncnc21 (single isomer, unassigned) [Compound 1-39]
(Q) CCn1c(-c2cnc(C)nc2)nc2c(-c3ccc4c(c3)C(C)(CC(C)C)C(=O)N4)ncnc21 (single isomer, unassigned) [Compound 1-1]
Field: lower IC50 | Options: P / Q Pick one; state its label.
Q
(Q: 0.004 µM, P: 0.085 µM)

---

testedOn: PI3Kdelta (Homo sapiens (Human))
assayExplanation: HTRF PI3K biochemical assay, delta isoform
studyConditions: 0.3 nM enzyme, 100 uM ATP, 50 uM PIP2; form screened (neutral or TFA salt)
pIC50: −log10 of the molar value.
valueType: pIC50

Some solved cases for reference:
molecule	measured
CCn1c(-c2cnc(C)nc2)nc2c(-c3ccc4c(c3)C(C)(Cc3ccccc3)C(=O)N4C)ncnc21 (single isomer, unassigned) [Compound 1-21]	8.40
CCn1c(-c2cnc(C)nc2)nc2c(-c3ccc4c(c3)C(C)(CC(C)C)OC(=O)N4)ncnc21 (single isomer, unassigned) [Compound 4-3]	7.23
CCn1c(-c2cnc(C)nc2)nc2c(-c3ccc4c(c3)C(C)(NC3CCOCC3)C(=O)N4)ncnc21 (racemic)	7.55
CCn1c(-c2cnc(C)nc2)nc2c(-c3ccc4c(c3)C(C)(N[C@@H](C)C3CC3)C(=O)N4)ncnc21 (single isomer, unassigned) [Compound 2-12]	8.30

(P) CCn1c(C(F)F)nc2c(-c3ccc4c(c3)C(C)(Cc3ccccc3)C(=O)N4)ncnc21 (single isomer, unassigned) [Compound 1-24]
(Q) Cc1ncc(-c2nc3c(-c4cnc5c(c4)C(C)(NCC(C)(C)F)C(=O)N5)ncnc3n2C)cn1 (single isomer, unassigned) [Compound 2-59]
Field: lower pIC50 | Options: P / Q Pick one; state its label.
P
(P: 6.18, Q: 8.70)

---

testedOn: PI3Kdelta (Homo sapiens (Human), UniProt O00329)
assayExplanation: HTRF PI3K biochemical assay, delta isoform
studyConditions: 0.3 nM enzyme, 100 uM ATP, 50 uM PIP2; form screened (neutral or TFA salt)
valueType: IC50 (nM)

compound	IC50, nM
CCn1c(-c2cnc(C)nc2)nc2c(-c3ccc4c(c3)C(C)(CC)C(=O)N4)ncnc21 (single isomer, unassigned) [Compound 1-38]	80

(I) CCn1c(-c2cnc(C)nc2)nc2c(-c3ccc4c(c3)C(C)(N3CC(C)(F)C3)C(=O)N4)ncnc21 (single isomer, unassigned) [Compound 2-64]
(II) CCn1c(-c2cnc(C)nc2)nc2c(-c3ccc4c(c3)C(C)(N3CC(C)(C#N)C3)C(=O)N4)ncnc21 (single isomer, unassigned) [Compound 2-5]
Field: lower IC50 | Options: I / II Pick one; state its label.
I

---

testedOn: PI3Kalpha (Homo sapiens (Human))
Sequence (P42336 whole entry, canonical isoform): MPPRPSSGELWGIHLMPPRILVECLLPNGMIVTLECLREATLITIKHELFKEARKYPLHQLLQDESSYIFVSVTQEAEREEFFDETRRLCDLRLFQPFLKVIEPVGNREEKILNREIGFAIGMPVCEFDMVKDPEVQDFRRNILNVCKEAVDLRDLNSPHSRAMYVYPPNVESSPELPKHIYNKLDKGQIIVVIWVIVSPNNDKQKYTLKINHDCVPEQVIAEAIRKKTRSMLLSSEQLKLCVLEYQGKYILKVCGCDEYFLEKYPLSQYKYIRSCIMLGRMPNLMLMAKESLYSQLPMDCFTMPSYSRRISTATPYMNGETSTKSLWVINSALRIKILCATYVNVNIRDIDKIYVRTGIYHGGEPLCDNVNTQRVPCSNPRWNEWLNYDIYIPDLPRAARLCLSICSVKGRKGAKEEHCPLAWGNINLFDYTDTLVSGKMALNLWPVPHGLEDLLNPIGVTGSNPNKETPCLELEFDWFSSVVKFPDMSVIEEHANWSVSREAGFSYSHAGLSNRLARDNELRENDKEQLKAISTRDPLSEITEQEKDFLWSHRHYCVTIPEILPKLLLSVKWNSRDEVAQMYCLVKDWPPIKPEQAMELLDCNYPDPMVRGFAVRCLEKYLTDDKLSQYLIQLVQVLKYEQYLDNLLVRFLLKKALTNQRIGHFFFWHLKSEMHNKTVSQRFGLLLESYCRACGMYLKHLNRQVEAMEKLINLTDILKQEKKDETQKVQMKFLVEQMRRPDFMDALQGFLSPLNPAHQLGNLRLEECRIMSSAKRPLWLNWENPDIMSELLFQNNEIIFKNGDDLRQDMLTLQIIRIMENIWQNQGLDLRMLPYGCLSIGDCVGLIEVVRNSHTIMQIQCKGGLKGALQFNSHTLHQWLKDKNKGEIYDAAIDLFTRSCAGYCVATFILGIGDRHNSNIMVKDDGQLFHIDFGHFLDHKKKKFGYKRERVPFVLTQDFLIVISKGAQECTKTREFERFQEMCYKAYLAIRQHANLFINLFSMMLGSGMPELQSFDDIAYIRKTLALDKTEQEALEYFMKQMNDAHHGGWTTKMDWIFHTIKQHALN
Sequence (P27986 whole entry partner, canonical isoform): as the sequence (P27986 whole entry partner, canonical isoform) above
assayExplanation: HTRF PI3K biochemical assay, alpha isoform (selectivity versus delta)
studyConditions: ratio PI3K-alpha IC50 value/PI3K-delta IC50 value
Recorded Relative Selectivity versus PI3Kalpha for the following molecules

Some solved cases for reference:
molecule	measured
CCn1c(-c2cnc(C)nc2)nc2c(-c3ccc4c(c3)C(C)(NCC3CCC3)C(=O)N4)ncnc21 (racemic) [Compound 2-20]	>10
CCn1c(-c2cnc(C)nc2)nc2c(-c3ccc4oc(=O)n(CC5CCOCC5)c4c3)ncnc21 [Compound 5-4]	>10
CCn1c(-c2cnc(C)nc2)nc2c(-c3ccc4c(c3)C(C#N)(CC(C)C)C(=O)N4)ncnc21 (stereo not shown) [Compound 1-11]	>10
CCn1c(-c2cnc(C)nc2)nc2c(-c3ccc4c(c3)C(C)(CC(C)C)C(=O)N4)ncnc21 (single isomer, unassigned) [Compound 1-1]	>10
CCn1c(-c2cnc(C)nc2)nc2c(-c3ccc4c(c3)C(C)(N[C@@H](C)C3CC3)C(=O)N4)ncnc21 (single isomer, unassigned) [Compound 2-13]	>10
CCn1c(-c2cnc(C)nc2)nc2c(-c3ccc4c(c3)C(C)(NC(C)C)C(=O)N4)ncnc21 (single isomer, unassigned) [Compound 2-32]	>10

Given CCn1c(-c2cnc(C)nc2)nc2c(-c3ccc4oc(=O)n(C5CCOCC5)c4c3)ncnc21 [Compound 5-9] , state its recorded Relative Selectivity versus PI3Kalpha.
>10
